# test.system: T1, human GFRα3 expressed with a C-terminal myc-myc-hexahistidine tag (human, UniProt O60609 32-374, biotinylated (sites not given) in ELISA format 2 and in the Octet cross-competition; not in SPR)
# T1 construct: also called hGFRα3-mmh; hGFRα3-mmH
# T1 sequence (O60609 other isoform, or with tags, fused parts or gaps limits assumed): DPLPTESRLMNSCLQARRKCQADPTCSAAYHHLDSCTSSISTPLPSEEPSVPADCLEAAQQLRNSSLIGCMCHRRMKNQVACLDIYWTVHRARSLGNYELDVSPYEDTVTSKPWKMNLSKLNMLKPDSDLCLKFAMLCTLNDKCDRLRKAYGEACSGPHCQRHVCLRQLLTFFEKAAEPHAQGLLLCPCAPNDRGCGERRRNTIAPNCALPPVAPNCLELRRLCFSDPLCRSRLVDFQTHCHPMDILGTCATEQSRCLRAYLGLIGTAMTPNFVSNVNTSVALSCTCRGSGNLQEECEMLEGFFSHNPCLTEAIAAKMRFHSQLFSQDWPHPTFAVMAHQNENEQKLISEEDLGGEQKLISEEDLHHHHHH
# assay.explanation: Octet cross-competition; biotin-hGFRα3-mmH pre-saturated with first antibody H4H2295S
readout.name: binding response of second antibody (nm)
// return numeric value only (unit: nm, not printed)

[
  {
    "binder": "H4H2342P (antibody, human IgG4, V domains shown, human IgG4 Fc (H4H)) VH: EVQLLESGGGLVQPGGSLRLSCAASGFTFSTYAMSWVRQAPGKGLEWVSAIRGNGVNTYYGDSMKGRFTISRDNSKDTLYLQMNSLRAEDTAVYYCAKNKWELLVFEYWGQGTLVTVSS VL: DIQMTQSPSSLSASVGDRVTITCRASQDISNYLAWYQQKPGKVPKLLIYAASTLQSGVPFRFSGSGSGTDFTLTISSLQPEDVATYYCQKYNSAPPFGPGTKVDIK",
    "scale.unit": "nm",
    "binding response of second antibody (nm)": 0.01
  },
  {
    "binder": "H4H2292S (antibody, human IgG4, V domains shown, human IgG4 Fc (H4H)) VH: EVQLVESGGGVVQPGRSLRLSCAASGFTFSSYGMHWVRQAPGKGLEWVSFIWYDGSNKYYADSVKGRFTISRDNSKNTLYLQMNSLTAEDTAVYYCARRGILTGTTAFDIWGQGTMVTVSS VL: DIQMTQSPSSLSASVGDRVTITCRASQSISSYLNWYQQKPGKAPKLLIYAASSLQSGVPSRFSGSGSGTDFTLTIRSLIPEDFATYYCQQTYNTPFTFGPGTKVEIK",
    "scale.unit": "nm",
    "binding response of second antibody (nm)": 1.8
  },
  {
    "binder": "H4H2243N2 (antibody, human IgG4, V domains shown, human IgG4 Fc (H4H)) VH: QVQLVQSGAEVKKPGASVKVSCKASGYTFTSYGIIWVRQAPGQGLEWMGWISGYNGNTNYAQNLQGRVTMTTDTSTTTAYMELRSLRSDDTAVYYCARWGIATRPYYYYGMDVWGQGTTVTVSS VL: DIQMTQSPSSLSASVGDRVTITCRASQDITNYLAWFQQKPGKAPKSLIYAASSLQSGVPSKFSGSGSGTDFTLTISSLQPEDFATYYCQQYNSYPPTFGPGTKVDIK",
    "scale.unit": "nm",
    "binding response of second antibody (nm)": 0.01
  },
  {
    "binder": "H4H2357S (antibody, human IgG4, V domains shown, human IgG4 Fc (H4H)) VH: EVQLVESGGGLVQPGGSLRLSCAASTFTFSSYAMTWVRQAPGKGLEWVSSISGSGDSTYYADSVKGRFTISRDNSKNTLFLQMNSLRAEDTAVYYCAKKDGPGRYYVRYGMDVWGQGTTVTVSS VL: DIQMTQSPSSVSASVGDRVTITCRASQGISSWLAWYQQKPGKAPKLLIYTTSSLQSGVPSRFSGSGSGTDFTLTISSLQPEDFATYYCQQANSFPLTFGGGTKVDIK",
    "scale.unit": "nm",
    "binding response of second antibody (nm)": 0.05
  }
]

Now turn to the next binder.
Data request: Returns the measured binding response of second antibody (nm) for the input binder. Input: H4H2291S (antibody, human IgG4, V domains shown, human IgG4 Fc (H4H)) VH: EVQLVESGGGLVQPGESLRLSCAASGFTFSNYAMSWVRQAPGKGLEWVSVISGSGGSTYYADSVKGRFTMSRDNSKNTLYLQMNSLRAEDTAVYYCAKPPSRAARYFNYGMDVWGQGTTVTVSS VL: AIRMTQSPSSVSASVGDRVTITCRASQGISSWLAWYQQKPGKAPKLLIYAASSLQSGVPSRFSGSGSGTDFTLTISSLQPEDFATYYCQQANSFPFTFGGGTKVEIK
Data returned: 0.2
